Hello, the source for this data is patent US12172995B2, in case you need it.

test_target: human TLR9 (Homo sapiens)
Sequence (Q9NR96 26-1032): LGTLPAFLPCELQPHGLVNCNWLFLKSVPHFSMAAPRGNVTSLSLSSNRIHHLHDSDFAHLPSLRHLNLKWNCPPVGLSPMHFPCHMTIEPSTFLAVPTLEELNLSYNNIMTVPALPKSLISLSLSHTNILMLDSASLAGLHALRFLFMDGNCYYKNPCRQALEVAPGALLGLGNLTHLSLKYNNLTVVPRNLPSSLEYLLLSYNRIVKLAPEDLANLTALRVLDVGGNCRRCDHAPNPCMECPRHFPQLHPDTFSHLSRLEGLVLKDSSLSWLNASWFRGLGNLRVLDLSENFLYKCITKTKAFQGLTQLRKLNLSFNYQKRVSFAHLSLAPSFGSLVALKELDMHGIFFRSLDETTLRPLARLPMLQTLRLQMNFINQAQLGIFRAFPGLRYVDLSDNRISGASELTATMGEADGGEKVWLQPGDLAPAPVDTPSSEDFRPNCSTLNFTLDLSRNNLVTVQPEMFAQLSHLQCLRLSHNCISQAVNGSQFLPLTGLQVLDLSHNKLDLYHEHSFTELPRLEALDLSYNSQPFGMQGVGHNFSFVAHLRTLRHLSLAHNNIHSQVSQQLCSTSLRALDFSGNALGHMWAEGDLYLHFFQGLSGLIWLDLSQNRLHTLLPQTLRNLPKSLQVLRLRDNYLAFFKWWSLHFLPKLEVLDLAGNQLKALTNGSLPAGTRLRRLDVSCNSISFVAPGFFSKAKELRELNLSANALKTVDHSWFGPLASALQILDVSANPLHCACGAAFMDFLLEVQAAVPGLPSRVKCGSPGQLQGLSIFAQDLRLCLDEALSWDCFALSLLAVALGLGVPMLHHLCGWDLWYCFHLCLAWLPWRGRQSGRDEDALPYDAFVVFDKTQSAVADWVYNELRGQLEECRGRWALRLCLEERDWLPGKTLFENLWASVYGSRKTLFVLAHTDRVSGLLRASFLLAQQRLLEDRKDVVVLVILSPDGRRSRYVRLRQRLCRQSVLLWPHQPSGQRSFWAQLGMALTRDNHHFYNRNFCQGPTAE
measurement_notes: TLR9 inhibition reporter assay (HEK-Blue SEAP)
condition_summary: HEK-Blue cells overexpressing human TLR9, stimulated with ODN2006 5 nM, 22 hour incubation
measured_quantity: IC50 (µM)
The reply should be a number in µM, with the unit left off.

[
  {
    "compound": "Cc1cc(-c2cc3[nH]nc(C4CCC(N5CC6(CCO6)C5)CC4)c3cc2C(C)C)cn2ncnc12 (stereo not drawn) [Example 156]",
    "IC50, µM": 6.11
  },
  {
    "compound": "Cc1cc2c(C3CCCN(C4COC4)C3)n[nH]c2cc1-c1cc(C)c2ncnn2c1 (stereo not drawn)",
    "IC50, µM": 14.5
  },
  {
    "compound": "CCc1cc2c(C3CCC(NC4CC4)CC3)n[nH]c2cc1-c1cc(C)c2ncnn2c1 (single isomer, unassigned) [Example 98]",
    "IC50, µM": 6.57
  },
  {
    "compound": "COc1cc(-c2cc(C)c3cn[nH]c3c2)cn2ncnc12",
    "IC50, µM": 8.84
  },
  {
    "compound": "Cc1cc2c(C3CCC(NCC(=O)N(C)C)CC3)n[nH]c2cc1-c1cc(C)c2ncnn2c1 (single isomer, unassigned) [Example 28]",
    "IC50, µM": 4.41
  }
]

Query: Tell me the measured IC50 of `Cc1cc2c(C3CCNCC3)n[nH]c2cc1-c1cc(C)c2nnnn2c1` , please.
Response: 4.94

Query: Tell me the measured IC50 of Cc1cc(-c2cc3[nH]nc(C4CCC(N5CC(F)(F)C5)CC4)c3cc2C(C)C)cn2ncnc12 (single isomer, unassigned) [Example 134] , please.
Response: 15.9

Query: Tell me the measured IC50 of `Cc1cc(-c2cc3[nH]nc(C4CCN(CC(=O)N(C)C)CC4)c3cc2C(C)C)cn2ncnc12` , please.
Response: 20.9

Query: Tell me the measured IC50 of Cc1cc(-c2cc3[nH]nc(C4CCC(N5CC(F)(F)C5)CC4)c3cc2C(C)C)cn2ncnc12 (single isomer, unassigned) [Example 135] , please.
Response: 18.9

Query: Tell me the measured IC50 of Cc1cc(-c2cc(C)c3ncnn3c2)cc2[nH]cc(C3CCNCC3)c12 [Example 16] , please.
Response: 1.42
